Assay: AUC (0 to infinity) in male Sprague-Dawley rat at 10 mg/kg, po measured after 24 hrs by LC-MS/MS analysis
Assay type: ADME, organism-based
Conditions: in vivo
recorded.endpoint: AUC(0-inf) (ng·h/mL)
Field: numeric (ng·h/mL). Do not append units.

Quick one: AUC(0-inf) of O=C1CCC(N2C(=O)c3ccc(N4CCN(CC5CCN(C(=O)c6ccc(-c7cnc8ncc(Cc9ccc%10ncccc%10c9)n8n7)cc6F)CC5)CC4)cc3C2=O)C(=O)N1 (stereo unspecified) ?
411

====

Assay: Cmax in male Sprague-Dawley rat at 10 mg/kg, po measured after 24 hrs by LC-MS/MS analysis
Type: ADME, organism-based
Details: in vivo
recorded.endpoint: Cmax (ng/mL)
Field: numeric (ng/mL). Do not append units.

Quick one: Cmax of O=C1CCC(N2C(=O)c3ccc(N4CCN(CC5CCN(C(=O)c6ccc(-c7cnc8ncc(Cc9ccc%10ncccc%10c9)n8n7)cc6F)CC5)CC4)cc3C2=O)C(=O)N1 (stereo unspecified) ?
70.7
